Value source: patent US20240317708A1

assay.protocol: Caco-2 permeability assay (CacoReady kit)
Type: in vitro ADME
assay.setup: human
metric: Papp

A selection of reference data follows.
COC(=O)/C=C/CC[C@H](NC(=O)c1oc2ccccc2c1C)C(=O)Nc1cccn(CC(=O)N[C@]23C[C@H]4C5CC6CC4[C@@H](C2)[C@@H](C6)[C@@H]5C3)c1=O (stereo in doubt) [III-74] ... 1 to 10 ×10⁻⁶ cm/s
COC(=O)/C=C/CC[C@H](NC(=O)c1oc2ccccc2c1C)C(=O)Nc1cccn(CC(=O)NC23CC4CC(C2)CC(C(F)(F)F)(C4)C3)c1=O [III-49] ... 1 to 10 ×10⁻⁶ cm/s

Lookup result for COC(=O)/C=C/CC[C@H](NC(=O)c1cc(Cl)sc1Cl)C(=O)Nc1cccn(CC(=O)N[C@H]2C[C@H]3CC[C@]2(C)C3(C)C)c1=O [III-128] ; measured Papp: 1 to 10 ×10⁻⁶ cm/s

# Papp (compound: COC(=O)/C=C/CC[C@H](NC(=O)c1ccnn1C)C(=O)Nc1cccn(CC(=O)NC2C3CC4CC(C3)CC2C4)c1=O (stereo partly drawn) [III-119] ) is < 1 ×10⁻⁶ cm/s

Lab book: Papp of COC(=O)/C=C/CC[C@H](NC(=O)c1cc2cc(Br)ccc2s1)C(=O)Nc1cccn(CC(=O)NC2C3CC4CC(C3)CC2C4)c1=O (stereo partly drawn) [III-6] noted as 1 to 10 ×10⁻⁶ cm/s

In plain terms, COC(=O)/C=C/CC[C@H](NC(=O)c1oc2ccccc2c1Cl)C(=O)Nc1cccn(CC(=O)NC2C3CC4CC(C3)CC2C4)c1=O (stereo partly drawn) [III-3] has a documented Papp of 1 to 10 ×10⁻⁶ cm/s

###

Each record here notes measured Papp.
assay.protocol: Caco-2 permeability assay (CacoReady kit)
Assay type: in vitro ADME
assay.setup: human

COC(=O)/C=C/CC[C@H](NC(=O)c1noc(C)n1)C(=O)Nc1cccn(CC(=O)NC23CC(C2)C3)c1=O ... < 1 ×10⁻⁶ cm/s
COC(=O)/C=C/CC[C@H](NC(=O)c1sc(C(F)(F)F)nc1C)C(=O)Nc1cccn(CC(=O)NC23CC4CC(C)(CC(C)(C4)C2)C3)c1=O ... 1 to 10 ×10⁻⁶ cm/s
COC(=O)/C=C/CC[C@H](NC(=O)c1cnccn1)C(=O)Nc1cccn(CC(=O)NC2C3CC4CC(C3)CC2C4)c1=O (stereo partly shown) ... < 1 ×10⁻⁶ cm/s
COC(=O)/C=C/CC[C@H](NC(=O)c1ccncc1)C(=O)Nc1cccn(CC(=O)NC2C3CC4CC(C3)CC2C4)c1=O (stereo partly shown) ... < 1 ×10⁻⁶ cm/s
Cc1c(C(=O)N[C@@H](CC/C=C/C(=O)N(C)C)C(=O)Nc2cccn(CC(=O)NC34CC5CC(C)(CC(C)(C5)C3)C4)c2=O)oc2ccccc12 ... 1 to 10 ×10⁻⁶ cm/s

So, COC(=O)/C=C/CC[C@H](NC(=O)c1oc2ccccc2c1C)C(=O)Nc1cccn(CC(=O)N(C)C2C3CC4CC(C3)CC2C4)c1=O (stereo partly shown) ? Its Papp was 1 to 10 ×10⁻⁶ cm/s

Reported Papp ( COC(=O)/C=C/CC[C@H](NC(=O)c1oc2ccccc2c1C)C(=O)Nc1cccn(CC23CC4CC(CC(C4)C2)C3)c1=O ) = 1 to 10 ×10⁻⁶ cm/s
